Cited source: patent US20230088461A1

target: GPC3 (analyte of Tables 9 and 10) (UniProt P51654 25-559, limits assumed); assay: SPR (Biacore T200), purified antibody captured through Fc, GPC3 as analyte, 1:1 model
Property Measured: kon (M⁻¹ s⁻¹)
State the answer as a number, implicitly in M⁻¹ s⁻¹.

• 9VH3VL3-hIgG1 (antibody, V domains shown, Humanized LAb19309, full-length human IgG1/kappa) VH: QVQLVQSGAEVKKPGASVKVSCKASGYTFTDYEMHWVRQATGQGLEWMGGIDPETGNTAYSQKFKGRVTMTRNTSISTAYMELSSLRSEDTAVYYCARYYSFAYWGQGTLVTVSS VL: DIVMTQSPDSLAVSLGERATINCRSSQTIVHSNGNTYLEWYQQKPGQPPKLLIYKVSNRFSGVPDRFSGSGSGTDFTLTISSLQAEDVAVYYCFQVSHVPYTFGGGTKLEIKR = 129000
• 9VH3VL2-hIgG1 (antibody, V domains shown, Humanized LAb19309, full-length human IgG1/kappa; also called 9VH3VL2-hIgG1 mAb) VH: QVQLVQSGAEVKKPGASVKVSCKASGYTFTDYEMHWVRQATGQGLEWMGGIDPETGNTAYSQKFKGRVTMTRNTSISTAYMELSSLRSEDTAVYYCARYYSFAYWGQGTLVTVSS VL: DIVMTQSPLSLPVTPGEPASISCRSSQTIVHSNGNTYLEWYLQKPGQSPQLLIYKVSNRFSGVPDRFSGSGSGTDFTLKISRVEAEDVGVYYCFQVSHVPYTFGGGTKLEIKR = 134000

Attention now turns to another entry.
Requested read-out: kon. Entry: Chimeric LAb19309-hIgG1 (antibody, V domains shown, The mouse VH/VL numbers follow the parallel order of the lists, as for LAb19309) VH: QVQLQQSGAELVRPGASVTLSCKASGYTFTDYEMHWVKQTPVHGLEWIGGIDPETGNTAYSQKFKGKATLTADKSSSTAYMEVRSLTSEDSAVYYCTRYYSFAYWGQGTLVTVSA VL: DVLMTQTPLSLPVNLGDQASISCRSSQTIVHSNGNTYLEWYLQKPGQSPKLLIYKVSNRFSGVPDRFSGSGSGTDFTLRISRVEAEDLGVYYCFQVSHVPYTFGGGTKLEIKR
67100
